target: T1, human MSLN-R3 protein (human, UniProt Q13421 487-598); assay: ELISA on coated antigen, antibody 0.001 nM
T1 construct: also called hMSLN-R3
T1 sequence (Q13421 495-606, form in doubt): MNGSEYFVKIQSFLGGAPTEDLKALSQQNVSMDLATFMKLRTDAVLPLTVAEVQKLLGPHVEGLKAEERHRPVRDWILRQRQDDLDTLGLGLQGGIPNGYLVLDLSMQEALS
OD450 values for the binders below.
Enter your answer as a number in OD450; do not include the unit.

>  <binder>
F7.44.20-H5 (scFv, not shown: small tags and cut ends, also called S009-F7.44.20 humanized antibody VH1a + VL1) scFv: EVQLVQSGAEVKKPGASVKVSCKASGYTFTDYNMDWVRQAPGQGLEWMGDINPSTGGTIYNQKFQGRVTMTEDKSTSTVYMELSSLRSEDTAVYYCARRRIGTGYFDVWGQGTTVTVSSGGGGSGGGGSGGGGSEIVLTQSPDFQSVTPKEKVTITCSASSSVISSYLSWYQQKPDQSPKLLIYRTSNLASGVPSRFSGSGSGTDFTLTINSLEAEDAATYYCHQWSSFPYTFGGGTKVEIK

>  <units>
OD450

>  <OD450>
0.04

$$$$
>  <binder>
F7.44.20-H4 (scFv, not shown: small tags and cut ends, also called S009-F7.44.20 humanized antibody VH1 + VL4) scFv: EVQLVQSGAEVKKPGASVKVSCKASGYTFTDYNMDWVRQAPGQGLEWMGDINPSTGGTIYNQKFNGRVTMTEDKSTSTVYMELSSLRSEDTAVYYCARRRIGTGYFDVWGQGTTVTVSSGGGGSGGGGSGGGGSEIVLTQSPATLSLSPGERATLSCSASSSVISSYLSWYQQKPGSSPRLLIYRTSNLASGIPARFSGSGSGTDYTLTISSLEPEDFAVYYCHQWSSFPYTFGGGTKVEIK

>  <units>
OD450

>  <OD450>
0.04

$$$$

Now let's try a different one.
For the binder shown here, F7.44.20-H13 (scFv, not shown: small tags and cut ends, also called S009-F7.44.20 humanized antibody VH2a + VL1) scFv: EVQLVQSGAEVKKPGASVKVSCKASGYTFTDYNMDWVRQAPGQGLEWMGDINPSTGGTIYNQKFSGRVTMTEDKSASTVYMELSSLRSEDTAVYYCARRRIGTGYFDVWGQGTTVTVSSGGGGSGGGGSGGGGSEIVLTQSPDFQSVTPKEKVTITCSASSSVISSYLSWYQQKPDQSPKLLIYRTSNLASGVPSRFSGSGSGTDFTLTINSLEAEDAATYYCHQWSSFPYTFGGGTKVEIK , give the reported OD450.
0.05

Values compiled from patent US20250250357A1.
